Target or system Serotonin 2 (5-HT2) receptor (Rattus norvegicus, UniProt P30994+P08909+P14842); recorded quantity -Log Ki.
experimentalEndpoint: -Log Ki

{"compound": "CN1CCN(C2=Nc3cc(F)ccc3Cc3ccccc32)CC1", "experimentalEndpoint": "-Log Ki", "numericReadout": 8.41}
{"compound": "CN1CCN(C2=Nc3ccccc3Oc3ncccc32)CC1", "experimentalEndpoint": "-Log Ki", "numericReadout": 5.85}
{"compound": "CN1CCN(C2=Nc3cccnc3Oc3ccc(Cl)cc32)CC1", "experimentalEndpoint": "-Log Ki", "numericReadout": 7.35}
{"compound": "CN1CCN(C2=Nc3ccccc3Sc3ccc(Cl)cc32)CC1", "experimentalEndpoint": "-Log Ki", "numericReadout": 9.23}
{"compound": "CN1CCN(C2=Nc3cccnc3Sc3ccccc32)CC1", "experimentalEndpoint": "-Log Ki", "numericReadout": 5.94}
{"compound": "CN1CCN(C2=Nc3cnccc3Sc3ccccc32)CC1", "experimentalEndpoint": "-Log Ki", "numericReadout": 6.55}
{"compound": "CN1CCN(C2=Nc3cccnc3Sc3ccc(Cl)cc32)CC1", "experimentalEndpoint": "-Log Ki", "numericReadout": 7.35}
{"compound": "CN1CCN(C2=Nc3cc(Cl)ccc3Sc3ccccc32)CC1", "experimentalEndpoint": "-Log Ki", "numericReadout": 8.38}

Hello, the source for this data is ChEMBL document CHEMBL1127331, in case you need it.
